tested on: MDR1 (human); assay: Apparent permeability from apical to basolateral side in MDCK cells expressing human MDR1; assay type: ADME, cell-based, Canis lupus familiaris; details: dog
endpoint_label: Papp A→B (×10⁻⁶ cm/s)

(I) C[C@H](Nc1nccc(Nc2cc(C3CC3)[nH]n2)n1)c1ccc2[nH]ccc2n1
(II) C[C@H](Nc1nccc(Nc2cc(C3CC3)[nH]n2)n1)c1ccc2[nH]ccc2c1
Exercise: Sorting ascending by Papp A→B, which comes first: I or II ? Answer with the label corresponding to your selection.
Key: I

====

system: Hepatocyte; experiment: Drug uptake in mouse hepatocytes measured at 30 secs relative to control; format: ADME, cell-based; details: 0.5 min
endpoint_label: fold change (FC)

Worked examples follow.
[
  {
    "compound": "CCCCNC(=O)NS(=O)(=O)c1ccc(C)cc1 [TOLBUTAMIDE]",
    "endpoint_label": "fold change (FC)",
    "measured_result": 1.4
  },
  {
    "compound": "C[n+]1ccc(-c2ccccc2)cc1",
    "endpoint_label": "fold change (FC)",
    "measured_result": 4.7
  }
]

(P) C[C@H](Nc1nccc(Nc2cc(C3CC3)[nH]n2)n1)c1ccc2[nH]ccc2c1
(Q) C[C@H](Nc1nccc(Nc2cc(C3CC3)[nH]n2)n1)c1ccc2[nH]ccc2n1
(R) O=C(O)C[C@H](O)C[C@H](O)/C=C/c1c(C2CC2)nc2ccccc2c1-c1ccc(F)cc1
Exercise: Task field, ranking: reported fold change (FC), descending order. List the labels in the requested order.
Key: R, Q, P
(R: 6.6, Q: 2.7, P: 1.8)

====

target: Serine/threonine-protein kinase PAK 1/PAK 2/PAK 3 (Homo sapiens, UniProt O75914+Q13177+Q13153); experiment: Inhibition of PAK1/2/3 in human EBC1 cells assessed as MEK1 phosphorylation level at Serine298 residue incubated for 2 hrs by HTRF assay; assay type: cell-based
endpoint_label: IC50 (nM)

Worked cases, IC50 given:
[
  {
    "structure_notation": "C[C@H](Nc1nccc(Nc2cc(C3CC3)[nH]n2)n1)c1nc2cc[nH]c2cc1F",
    "IC50, nM": 57
  },
  {
    "structure_notation": "C[C@@H](c1ccc2[nH]ccc2n1)N(C)c1nccc(Nc2cc(C3CC3)[nH]n2)n1",
    "IC50, nM": 240
  },
  {
    "structure_notation": "C[C@H](Nc1nccc(Nc2cc(C3CC3)[nH]n2)n1)c1nc2cc[nH]c2cc1Cl",
    "IC50, nM": 190
  }
]

(A) C[C@H](Nc1nccc(Nc2cc(C3CC(F)(F)C3)[nH]n2)n1)c1ccc2[nH]ccc2n1
(B) C[C@H](Nc1nccc(Nc2cc(C3CC3)[nH]n2)n1)c1cc2cc[nH]c2cn1
Exercise: So which one has the bigger IC50 here, A or B ? Response format: the label of the selected entry.
Key: A
(A: 250 nM, B: 68 nM)

====

biological target: Serine/threonine-protein kinase PAK 1 (Homo sapiens, UniProt Q13153); test: Inhibition of recombinant human GST-tagged PAK1 kinase domain expressed in baculovirus expression system assessed as suppression of phosphorylation of coumarin/fluorescein-labelled FRET peptide substrate at Ser/Thr19 residues preincubated with substrate for 10 mins followed by enzyme addition measured after 60 mins by Z-Lyte assay
Sequence (Q13153 whole entry, the tested form may be a part): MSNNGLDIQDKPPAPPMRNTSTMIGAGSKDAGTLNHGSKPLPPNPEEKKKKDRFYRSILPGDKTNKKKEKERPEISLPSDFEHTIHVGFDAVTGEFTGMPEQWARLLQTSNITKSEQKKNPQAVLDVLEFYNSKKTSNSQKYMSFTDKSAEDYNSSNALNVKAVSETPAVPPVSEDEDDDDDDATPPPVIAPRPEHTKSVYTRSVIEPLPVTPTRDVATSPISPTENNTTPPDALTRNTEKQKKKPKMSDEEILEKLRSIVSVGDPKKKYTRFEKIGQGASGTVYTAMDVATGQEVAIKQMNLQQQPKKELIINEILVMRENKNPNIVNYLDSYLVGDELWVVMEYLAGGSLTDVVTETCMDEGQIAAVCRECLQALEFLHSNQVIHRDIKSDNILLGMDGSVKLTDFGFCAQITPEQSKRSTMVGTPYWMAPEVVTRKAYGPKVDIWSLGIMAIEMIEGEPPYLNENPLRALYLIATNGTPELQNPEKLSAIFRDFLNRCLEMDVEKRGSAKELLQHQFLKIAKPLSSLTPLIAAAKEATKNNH
endpoint_label: Ki (µM)

[
  {
    "structure_notation": "CC[C@H](Nc1nccc(Nc2cc(C3CC3)[nH]n2)n1)c1ccc2[nH]ccc2n1",
    "target_desc": "Serine/threonine-protein kinase PAK 1 (Homo sapiens, UniProt Q13153)",
    "Ki / µM": 0.023
  },
  {
    "structure_notation": "C[C@@H](c1ccc2[nH]ccc2n1)N(C)c1nccc(Nc2cc(C3CC3)[nH]n2)n1",
    "target_desc": "Serine/threonine-protein kinase PAK 1 (Homo sapiens, UniProt Q13153)",
    "Ki / µM": 0.018
  },
  {
    "structure_notation": "c1cc(Nc2cc(C3CC3)[nH]n2)nc(NCc2ccc3[nH]ccc3n2)n1",
    "target_desc": "Serine/threonine-protein kinase PAK 1 (Homo sapiens, UniProt Q13153)",
    "Ki / µM": 0.12
  }
]

(a) C[C@H](Nc1nccc(Nc2cc(C3CC3)[nH]n2)n1)c1nc2cc[nH]c2cc1Cl
(b) C[C@H](Nc1nccc(Nc2cc(C3CC3)[nH]n2)n1)c1ccc2[nH]ccc2n1
Exercise: I'm curious whether a or b has the smaller Ki number. Which is it? Please reply using the label of the selected record.
Key: b
